Would you mind telling me the reported PBM binding z-score of each entry?
Tested on: VDR homodimer (NR concentration 270 nM)
Experiment: PBM binding z-score (relative to random genomic background probes); higher = stronger binding; sequences stand for … in GC…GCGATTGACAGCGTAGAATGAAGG

Jot down PBM binding z-score (VDR homodimer (NR concentration 270 nM)) of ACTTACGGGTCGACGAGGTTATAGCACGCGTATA .
2.03

Write down the reported PBM binding z-score (system: VDR homodimer (NR concentration 270 nM)) of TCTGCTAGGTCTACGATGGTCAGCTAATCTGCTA
-1.28

Send back VDR homodimer (NR concentration 270 nM) PBM binding z-score of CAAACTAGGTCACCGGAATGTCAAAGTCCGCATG only.
0.883

# return PBM binding z-score for TAGCCTAGGTCATTCAGAGGCCAGTATAGAAAGC , test system: VDR homodimer (NR concentration 270 nM)
1.14

Determine reported PBM binding z-score for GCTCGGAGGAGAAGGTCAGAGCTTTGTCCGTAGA ; test system: VDR homodimer (NR concentration 270 nM).
-0.592

Please report the measured PBM binding z-score for GCTTACGGGTCAAAGGTTATCGCATGAATAGAAT tested on VDR homodimer (NR concentration 270 nM).
1.59

====

Test system: PPARg homodimer (NR concentration 180 nM)
Test: PBM binding z-score (relative to random genomic background probes); higher = stronger binding; sequences stand for … in GC…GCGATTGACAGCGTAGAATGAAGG
// map PBM binding z-score to label using category 1 (below 0.5), category 2 (0.5 to below 2), category 3 (2 or more)

Band assignment needed for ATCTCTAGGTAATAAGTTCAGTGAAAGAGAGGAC please.
category 2

# bin lookup: classify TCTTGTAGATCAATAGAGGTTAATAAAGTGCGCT by its PBM binding z-score
category 1

Please let me know in which category the item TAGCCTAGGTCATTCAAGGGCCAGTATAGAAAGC belongs.
category 2

Could you place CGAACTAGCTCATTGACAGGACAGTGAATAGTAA in its proper category? Many thanks.
category 1

State the band of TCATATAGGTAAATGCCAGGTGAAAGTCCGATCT
category 2

Form field 'band' for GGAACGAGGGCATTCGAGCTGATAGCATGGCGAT
category 1

Please let me know in which category the item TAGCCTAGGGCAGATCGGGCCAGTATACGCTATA belongs.
category 1

Input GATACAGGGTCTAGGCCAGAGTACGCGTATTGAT ; output its category
category 1

Just checking, what class would you give TATCCTAGGTCATGGGCCAGTATACCACGCGAAC here?
category 2

Sort into band: ATATGTAGGTTATTGGGTCATTCAGTTTGCGCAT
category 3

Into which bin does this sequence go? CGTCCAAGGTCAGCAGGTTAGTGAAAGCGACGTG
category 3

Categorize the following entry: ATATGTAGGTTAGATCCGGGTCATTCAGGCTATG
category 2

Which category does the recorded PBM binding z-score put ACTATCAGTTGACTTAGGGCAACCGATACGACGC in?
category 1

Hello team, could you let me know which band the following sequence falls into: CCTTACGGGGCACGAGGTTATAGCACGACGAGCG
category 1

Classify this sequence: TGAAGGAGGTTATAAGATCAGGGAACGTTGCAAA
category 1

Category of ATCTCTAGGTACAAGTTCAGTGAATCCCGAGGAT :
category 2

Record TCATATAGGTAAAAGGTGAAGGTCGGTGTGGTAA — which class?
category 2

Dear colleague, I would appreciate it if you could identify the bin for ATCTCTAGGTGACCAAGTTCAGTGAATGCCGAAC and reply at your convenience.
category 2

Determine which band this sequence sits in: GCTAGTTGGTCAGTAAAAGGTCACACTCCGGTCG
category 3

Please classify: GGAACGAGGGCATTCGAGTAGATAGCATGGCGAT
category 1

Which band does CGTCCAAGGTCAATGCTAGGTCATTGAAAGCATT fall in?
category 3

Pick a category. Item: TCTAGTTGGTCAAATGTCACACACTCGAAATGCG
category 3

Could you place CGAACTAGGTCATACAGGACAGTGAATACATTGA in its proper category? Many thanks.
category 2

Any idea which band TCTTGTAGATCAAGCAGGTTACGAAAGCCTGAGT is in?
category 1

Which class does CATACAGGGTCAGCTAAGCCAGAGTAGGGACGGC fall in?
category 2

Would you mind sorting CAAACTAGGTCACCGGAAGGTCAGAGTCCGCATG into the appropriate category?
category 3

Assign a bin to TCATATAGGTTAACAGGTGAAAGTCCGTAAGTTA
category 2

// return the class label for CCAGACAGGTGAAAGGTAACTCATTCTGGTACGC
category 2

Field: class (PBM binding z-score) — entry: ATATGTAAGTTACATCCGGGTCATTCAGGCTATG
category 2

Hello team, could you let me know which band the following sequence falls into: CCGACTGGGGAATAAGGTTACCATAAGCCAGCCC
category 1

Hey, which category is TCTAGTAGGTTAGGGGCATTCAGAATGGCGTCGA in, do you know?
category 2

Classify this sequence: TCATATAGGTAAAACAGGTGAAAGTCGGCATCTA
category 2

====

Test system: RARa:RXR (NR concentration 270 nM, RXRa partner concentration 90 nM)
Assay: PBM binding z-score (relative to random genomic background probes); higher = stronger binding; sequences stand for … in GC…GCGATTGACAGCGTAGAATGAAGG
Kindly state PBM binding z-score for each of the entries shown.
Hey, just send me the number, nothing else.

Respond only with PBM binding z-score recorded for CAAACTAGGTCACAGAGGTCAAAGGCCGTGCGTA
7.58

Look up PBM binding z-score of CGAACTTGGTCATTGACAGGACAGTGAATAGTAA and report it.
0.48

Provide PBM binding z-score value for the following sequence: AGAATGAGGTTACCAAAGATCAGGGTAACGCTTG
2.59

Report PBM binding z-score, nothing else, for this sequence: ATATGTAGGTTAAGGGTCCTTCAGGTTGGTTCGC
1.23

Dear colleague, please send me the reported PBM binding z-score for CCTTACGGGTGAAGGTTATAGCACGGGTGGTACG when you can.
0.732

Quote PBM binding z-score reported for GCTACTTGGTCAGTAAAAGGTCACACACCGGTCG please.
6.09

Note PBM binding z-score for the sequence shown: CCTACTGGGCCACGAAAGGACATTGATTCAGTGA
0.342

Supply PBM binding z-score value. Item: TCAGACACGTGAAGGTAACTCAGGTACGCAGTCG
0.632

Assign PBM binding z-score to the following record: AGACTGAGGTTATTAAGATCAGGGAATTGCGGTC
1.52

Look up and report measured PBM binding z-score for this entry: ACTAGCAGGCCAAGGTTCACTCAAGATTAGTCCG
1.35

Specify PBM binding z-score for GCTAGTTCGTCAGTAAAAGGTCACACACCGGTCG and stop.
6.4

For the sequence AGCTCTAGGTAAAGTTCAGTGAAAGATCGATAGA , give its reported PBM binding z-score.
0.896

Return PBM binding z-score (reported value) for this sequence: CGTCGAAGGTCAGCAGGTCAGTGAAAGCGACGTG
4.8

Dear colleague, please send me the reported PBM binding z-score for ATCGGAAGGTCGACGAGGTGAGTATACACCGTTT when you can.
1.66

Read the entry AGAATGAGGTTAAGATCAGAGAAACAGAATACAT and write its reported PBM binding z-score.
2.03

Using the record for AGTCAAAGTTCATATAGGTAACGTAAGATATGCT , state its measured PBM binding z-score.
3.57

Identify measured PBM binding z-score corresponding to TTACCAAGGTGAAGGTCGTCGATCCCTCTGTAGA
1.64

Respond only with PBM binding z-score recorded for TCTTGTAGATCAGCAGGTCAAGAAAGCTGGCCAA
2.18

Output PBM binding z-score of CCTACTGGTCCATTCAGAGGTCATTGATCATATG
4.42

====

Field: PBM binding z-score. Provide a value for each of the sequences that follow.
Test system: RARa homodimer (NR concentration 270 nM)
Experiment: PBM binding z-score (relative to random genomic background probes); higher = stronger binding; sequences stand for … in GC…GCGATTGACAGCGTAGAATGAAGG
Give the figure by itself; no unit, no explanation.

Identify measured PBM binding z-score associated with TCGAGTAGGTTAGTCGGGGCAATCAGCCAACATA
-0.959

Specify PBM binding z-score for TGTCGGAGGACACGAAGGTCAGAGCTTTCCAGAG and stop.
0.146

Tell me measured PBM binding z-score for GTACCAAGGTGAACAGGTCGTTGATGAGTAGGCG please.
-0.00415

Return PBM binding z-score for the following sequence: CCTACTGGGCCATTCAGAGCTCATTGATCATATG
-0.409

Please give the documented PBM binding z-score of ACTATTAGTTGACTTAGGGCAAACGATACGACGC
0.0866

Please list PBM binding z-score recorded for the sequence GCGACTGGGGCATCAGCAGGATACCATAACTTAA
-0.756

Dear colleague, please send me the reported PBM binding z-score for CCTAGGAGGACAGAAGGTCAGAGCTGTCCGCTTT when you can.
0.629

Determine from records and report PBM binding z-score for GCTATTAGTTGAAAAGGCAACCGAATGATTCTCG
0.557

Item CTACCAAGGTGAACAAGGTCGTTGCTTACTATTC : provide PBM binding z-score
-0.135

Tell me PBM binding z-score reported for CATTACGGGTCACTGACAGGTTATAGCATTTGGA
1.33

Provide measured PBM binding z-score value, entry: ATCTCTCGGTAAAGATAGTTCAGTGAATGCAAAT
1.32

Report PBM binding z-score for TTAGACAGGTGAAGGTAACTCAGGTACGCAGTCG
0.607

Complete the entry with PBM binding z-score for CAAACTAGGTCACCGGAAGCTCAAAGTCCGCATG
1.19

Please supply the value of reported PBM binding z-score for the item GCAGACAGGTGAAACGCAGGTAACTTAGGGTGGC
-0.246

Look up and report measured PBM binding z-score for this entry: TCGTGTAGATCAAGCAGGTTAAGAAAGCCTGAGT
0.0709

Please give the documented PBM binding z-score of CGTCAAAGTTCAACTAAGGTAACGTGAAGCACGC
2.47

# return recorded PBM binding z-score for entry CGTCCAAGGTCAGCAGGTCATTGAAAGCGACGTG
0.397

// Input: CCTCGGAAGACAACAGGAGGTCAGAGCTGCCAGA . Output its PBM binding z-score only.
0.559

Quickly give me recorded PBM binding z-score for CCTCGGAGGACAGAATGTCAGAGCTGTCCGCTTT
-0.242

Please give the documented PBM binding z-score of CGTCCAAGGTCAGGAGGTCAGTGAAAGCGACGTG
1.5

Please supply the value of reported PBM binding z-score for the item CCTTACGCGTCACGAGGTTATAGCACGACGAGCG
0.761

State its PBM binding z-score: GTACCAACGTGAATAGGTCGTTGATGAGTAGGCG
-0.122

Give recorded PBM binding z-score. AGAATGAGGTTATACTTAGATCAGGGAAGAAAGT
1.18

Given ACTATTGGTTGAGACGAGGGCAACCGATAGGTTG , respond with its PBM binding z-score.
0.274

Retrieve PBM binding z-score measured for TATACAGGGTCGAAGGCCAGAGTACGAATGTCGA and print it.
-0.116

Report PBM binding z-score, nothing else, for this sequence: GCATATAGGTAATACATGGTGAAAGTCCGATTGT
0.397

Specify PBM binding z-score for CAAACTAGGTCACAGAGCTCAAAGTCCGTGCGTA and stop.
0.446

Identify measured PBM binding z-score corresponding to ATCTCTAGGTAAAAGTTCTGTGAATCCCGAGGAT
0.566

Consider the sequence AATACCGGGTCACTAGGCCAGAGTAGGTACGAAT . State its measured PBM binding z-score.
0.616

Indicate its recorded PBM binding z-score; the sequence in question is AGTCAAAGTTCACTAGGTAACGAAAGATTCAGCT
1.47

For the sequence CGTCCAGGGTCAAGGTCAGTGAAAGAGACTCGAA , report PBM binding z-score.
1.53

Identify measured PBM binding z-score corresponding to CCGAGTAGGTTATGGGGCATTCTGGCAACGGTGA
0.262

Supply measured PBM binding z-score of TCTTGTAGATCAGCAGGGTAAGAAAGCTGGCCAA in your reply.
-0.0241

Please list PBM binding z-score recorded for the sequence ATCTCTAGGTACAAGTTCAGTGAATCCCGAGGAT
0.103

Consider the sequence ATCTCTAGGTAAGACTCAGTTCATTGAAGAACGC . State its measured PBM binding z-score.
1.62

Answer with reported PBM binding z-score of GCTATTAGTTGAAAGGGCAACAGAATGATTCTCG
1.15

Input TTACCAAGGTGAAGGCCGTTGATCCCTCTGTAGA , output reported PBM binding z-score.
-0.621

Tell me measured PBM binding z-score for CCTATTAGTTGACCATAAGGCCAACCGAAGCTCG please.
1.87
